pIC50: −log10 of the molar value.
# literature pull: NAMPT (Homo sapiens, UniProt P43490) pIC50
# Sequence (P43490 whole entry): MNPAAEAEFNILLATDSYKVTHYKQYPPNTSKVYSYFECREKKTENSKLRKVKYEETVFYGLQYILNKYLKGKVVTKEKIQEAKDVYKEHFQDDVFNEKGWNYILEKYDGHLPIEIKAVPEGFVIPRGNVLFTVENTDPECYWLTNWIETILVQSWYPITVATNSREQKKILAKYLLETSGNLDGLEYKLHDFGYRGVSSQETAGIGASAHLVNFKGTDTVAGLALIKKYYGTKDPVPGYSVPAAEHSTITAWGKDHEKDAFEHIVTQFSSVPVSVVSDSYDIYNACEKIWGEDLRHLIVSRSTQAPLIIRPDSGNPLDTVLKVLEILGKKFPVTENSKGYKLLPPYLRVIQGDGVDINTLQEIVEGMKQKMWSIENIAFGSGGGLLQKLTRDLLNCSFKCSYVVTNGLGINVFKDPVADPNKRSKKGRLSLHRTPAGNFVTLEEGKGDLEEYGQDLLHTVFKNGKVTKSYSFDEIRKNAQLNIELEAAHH
OBSERVATION_TYPE: pIC50

* O=C(Nc1ccc(C2CCN(C(=O)c3cccc(OC(F)(F)F)c3)CC2)cc1)C1CN(c2cccnn2)C1 | 9.06
* O=C(CC1CCOCC1)Nc1ccc(NC(=O)NCc2ccn3ccnc3c2)cc1 | 9.77
* N#Cc1ccc(CN(C(=O)CC2CCOC2)c2ncc(C(=O)NCCCn3ccnc3)s2)cc1 (centres unmarked) | 8.75
* CCCC(=O)N1CCC(Oc2ccc(C(=O)NCc3ccc4nccn4c3)cc2)CC1 | 9.02
* O=C(NCc1ccn2ccnc2c1)c1ccc(C2CCN(C(=O)c3c(F)cccc3F)CC2)cc1 | 8.99
